System: Bacillus spizizenii
experiment description: microbe, parasite or virus in culture
Type: functional
conditions: ATCC 6633
Description: Antibacterial activity against Bacillus subtilis ATCC 6633 by double microdilution assay
endpoint: MIC (µM)
Reply with just the number (in µM).

Below, each entry is followed by its recorded MIC result.
- structure notation: "C[C@H](N)[C@H]1O[C@@H](O[C@H]2[C@H](O)[C@@H](N)C[C@@H](N)[C@@H]2O[C@H]2O[C@H]([C@H](O)CO)[C@@H](O)[C@H](O)[C@H]2N)[C@H](O)[C@@H]1O"
  MIC [µM]: 64
- structure notation: "C[C@H](N)[C@H]1O[C@@H](O[C@H]2[C@H](O)[C@@H](N)C[C@@H](N)[C@@H]2O[C@H]2O[C@H]([C@@H](C)O)[C@@H](O)[C@H](O)[C@H]2N)[C@H](O)[C@@H]1O"
  MIC [µM]: 156

INPUT: Reported MIC for N[C@H]1[C@@H](O[C@@H]2[C@@H](O)[C@H](O)[C@@H](N)C[C@H]2N)O[C@H]([C@H](O)CO)[C@@H](O)[C@@H]1O : what is it?
OUTPUT: 311

INPUT: Reported MIC for NC[C@H]1O[C@@H](O[C@H]2[C@H](O)[C@@H](N)C[C@@H](N)[C@@H]2O[C@H]2O[C@H]([C@H](O)CO)[C@@H](O)[C@H](O)[C@H]2N)[C@H](O)[C@@H]1O : what is it?
OUTPUT: 34

====

experiment description: Binding affinity to decoding site rRNA of ribosome in Escherichia coli using Escherichia coli S30 circular DNA assessed as inhibition of translation incubated for 60 mins by luciferase reporter gene based coupled transcription/translation assay
The entries below come with measured IC50 values attached.
Reply with just the number (in nM).

- compound: "CN[C@@H]1[C@@H](O)[C@@H](O[C@H]2[C@H](O)[C@@H](O[C@H]3O[C@H](C(C)O)[C@@H](O)[C@H](O)[C@H]3N)[C@H](N)C[C@@H]2N)OC[C@]1(C)O (some centres not stated)"
  IC50, nM: 10

Let's switch to this compound now.
INPUT: Reported IC50 for C[C@H](N)[C@H]1O[C@@H](O[C@H]2[C@H](O)[C@@H](N)C[C@@H](N)[C@@H]2O[C@H]2O[C@H]([C@H](O)CO)[C@@H](O)[C@H](O)[C@H]2N)[C@H](O)[C@@H]1O : what is it?
OUTPUT: 1200

====

Tested on: Bacillus spizizenii
experiment description: microbe, parasite or virus in culture
Type: functional
conditions: ATCC 6633
The entries below come with measured MIC values attached.

Below, each entry is followed by its recorded MIC result.
- compound: "CN[C@@H]1[C@@H](O)[C@@H](O[C@@H]2[C@@H](O)[C@H](O[C@H]3O[C@H](CN)CC[C@H]3N)[C@@H](N)C[C@H]2N)OC[C@]1(C)O"
  MIC: "< 0.75 µM"
- compound: "N[C@H]1[C@@H](O[C@@H]2[C@@H](O)[C@H](O)[C@@H](N)C[C@H]2N)O[C@H]([C@@H](O)CO)[C@@H](O)[C@@H]1O"
  MIC: "> 375 µM"

Let's switch to this compound now.
INPUT: Reported MIC for CN[C@@H]1[C@@H](O)[C@@H](O[C@H]2[C@H](O)[C@@H](O[C@H]3O[C@H](C(C)O)[C@@H](O)[C@H](O)[C@H]3N)[C@H](N)C[C@@H]2N)OC[C@]1(C)O (stereo partly drawn) : what is it?
OUTPUT: < 1.25 µM

====

The entries below come with measured pIC50 values attached.
experiment description: Binding affinity to decoding site rRNA of ribosome in Escherichia coli using Escherichia coli S30 circular DNA assessed as inhibition of translation incubated for 60 mins by luciferase reporter gene based coupled transcription/translation assay
Expect pIC50 as a plain number equal to -log10 of the molar concentration.

Below, each entry is followed by its recorded pIC50 result.
- structure notation: "N[C@H]1[C@@H](O[C@@H]2[C@@H](O)[C@H](O)[C@@H](N)C[C@H]2N)O[C@H]([C@@H](O)CO)[C@@H](O)[C@@H]1O"
  pIC50: 4.04
- structure notation: "NC[C@H]1O[C@@H](O[C@H]2[C@H](O)[C@@H](N)C[C@@H](N)[C@@H]2O[C@H]2O[C@H]([C@H](O)CO)[C@@H](O)[C@H](O)[C@H]2N)[C@H](O)[C@@H]1O"
  pIC50: 6.15
- structure notation: "C[C@H](N)[C@H]1O[C@@H](O[C@H]2[C@H](O)[C@@H](N)C[C@@H](N)[C@@H]2O[C@H]2O[C@H]([C@@H](C)O)[C@@H](O)[C@H](O)[C@H]2N)[C@H](O)[C@@H]1O"
  pIC50: 5.96
- structure notation: "N[C@H]1[C@@H](O[C@@H]2[C@@H](O)[C@H](O)[C@@H](N)C[C@H]2N)O[C@H]([C@H](O)CO)[C@@H](O)[C@@H]1O"
  pIC50: 4.96

Let's switch to this compound now.
INPUT: Reported pIC50 for C[C@@H](O)[C@H]1O[C@H](O[C@@H]2[C@@H](O)[C@H](O)[C@@H](N)C[C@H]2N)[C@H](N)[C@@H](O)[C@@H]1O : what is it?
OUTPUT: 5.22
